Value source: the supplement of paper PMC9112550

# Tested on: Escherichia coli TOP10;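 also: peptides expressed intracellularly from a pBAD plasmid library in pooled LB shake-flask culture, induced with 0.3% L-arabinose, DNA abundance read by NGS, three biological replicates, DESeq2 with apeglm shrinkage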
# PROTOCOL: shrunken log2 fold change of peptide-encoding DNA abundance (4.5 h post-induction vs induction); higher = less antimicrobial activity (less host growth inhibition)
# CONDITION LABEL: time post-induction: 4.5 h; library: site-saturation at positions 5, 18, 19, 20
Quick list: shrunken log2 fold change per entry.
Could you keep your reply to the number by itself?

Worked examples, 5 sequences total:
Quick one: shrunken log2 fold change for RRIRMRPPRLPRPRPRPRDGPRP ? 2.69

# iterate: RRIRQRPPRLPRPRPRPSQKPRP 0.0595

Next: RRIRPRPPRLPRPRPRPHAQPRP -0.119

Next up: RRIRCRPPRLPRPRPRPLGAPRP 0.444

Ok, now RRIRNRPPRLPRPRPRPEHVPRP -0.0119

---
For the sequence RRIRPRPPRLPRPRPRPPWGPRP , what shrunken log2 fold change is on record? 0.34

// next record RRIRQRPPRLPRPRPRPHETPRP -0.0223

What do you get for RRIRARPPRLPRPRPRPVVVPRP ? 0.652

Subsequent entry: RRIRQRPPRLPRPRPRPCDHPRP 0.00902

Same question for RRIRPRPPRLPRPRPRPLGDPRP please. 0.279
